B1: r4_43_TrROS_Hall (parent)
chain: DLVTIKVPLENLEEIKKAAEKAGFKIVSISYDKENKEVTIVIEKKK

- Variants of: B1
- assay-protocol: folding stability dG (cDNA display proteolysis); higher = more stable
- applied-conditions: PBS, room temperature
Entries and their measured folding stability dG follow.
attribute-measured: folding stability dG (kcal/mol)

DLVTIKVPLENLEEIKKAAEKAGFKIVKISYDKENKEVTIVIEKKK [S28K]	3.52
DLVTIKVPLANLEEIKKAAEKAGFKIVSISYDKENKEVTIVIEKKK [E10A]	3.8
DLVTIKVPLENLEEIKKAQEKAGFKIVSISYDKENKEVTIVIEKKK [A19Q]	3.37
DLVTIIVPLENLEEIKKAAEKAGFKIVSISYDKENKEVTIVIEKKK [K6I]	3.75
DLVTIKVPGENLEEIKKAAEKAGFKIVSISYDKENKEVTIVIEKKK [L9G]	3.08
DLVTIKVPLENLEEIKKAAEKAGFKIVSLSYDKENKEVTIVIEKKK [I29L]	3.85
DLVTIKVPLENLEEIKKAAEKAGFKIVSISYDKHNKEVTIVIEKKK [E34H]	3.92
DLVTIKVPLENLEEIKKACEKAGFKIVSISYDKENKEVTIVIEKKK [A19C]	3.44
DLVTIKVPLENLEEIKKAAEKAGFKIVSISYDKENKEHTIVIEKKK [V38H]	2.85
DLVTIKVPLENLEEIKKAAEKAGFKIVSISYDKENKEVTIVIEEKK [K44E]	3.58
DLVTIKVPLENLEEIKKASEKAGFKIVSISYDKENKEVTIVIEKKK [A19S]	3.69
DLVTIKVPLENLEEIKKAAEKAGFKIVSISYDKENKEVTIVILKKK [E43L]	4.39
DLVTIKVPLENLEEIKKAKEKAGFKIVSISYDKENKEVTIVIEKKK [A19K]	3.32
DLVTIKVPLENLEEIKKAAEKIGFKIVSISYDKENKEVTIVIEKKK [A22I]	3.67
DLVTIKVPLENMEEIKKAAEKAGFKIVSISYDKENKEVTIVIEKKK [L12M]	3.77
DLVTIKVPLENLEEIKKAAEKAGFKIVSISYDKENKEVTSVIEKKK [I40S]	0.271
DLITIKVPLENLEEIKKAAEKAGFKIVSISYDKENKEVTIVIEKKK [V3I]	3.36
DLVTIKVPLENLEQIKKAAEKAGFKIVSISYDKENKEVTIVIEKKK [E14Q]	3.56
DLVTIKIPLENLEEIKKAAEKAGFKIVSISYDKENKEVTIVIEKKK [V7I]	3.6
DLVTIKVPLENLEEIKKAAEVAGFKIVSISYDKENKEVTIVIEKKK [K21V]	3.93
DLVTIKVPLENLEEIKKAAEKAGFKIVSISYDKENKEVTIVKEKKK [I42K]	2.34
DLVTIKVPLENLEEIKKAAEKAGFKIVSISYDKENKEVQIVIEKKK [T39Q]	3.36
DLVTIKVPLENLEEIKKMAEKAGFKIVSISYDKENKEVTIVIEKKK [A18M]	3.94

Reference for the values: the MegaScale stability set (Tsuboyama et al. 2023)
